Molecular target: KRas G12D (Homo sapiens, UniProt P01116, G12D);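 also: TR-FRET displacement binding assay on KRas, read after a one-hour incubation at room temperature, IC50 fitted from percent-of-control values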
Sequence (P01116 1-169 isoform P01116-2 G12D): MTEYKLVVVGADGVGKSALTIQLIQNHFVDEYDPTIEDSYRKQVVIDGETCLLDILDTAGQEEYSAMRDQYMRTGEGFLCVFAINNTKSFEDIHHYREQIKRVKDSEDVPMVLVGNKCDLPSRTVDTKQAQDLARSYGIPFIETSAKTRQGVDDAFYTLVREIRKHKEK
Assay: biochemical
As shown below, each of these molecules has a reported IC50 value.
Write the number in nM without appending the unit.

Worked examples, 3 molecules total:
CCc1c(F)ccc2cc(O)cc(-c3ncc4c(N5C[C@@H]6C[C@H](C5)[C@H](O)C6)nc(OCC5(CN(C)C)CC5)nc4c3F)c12: 5
Cn1cc(CNc2nc(OCC34CCCN3CCC4)nc3c(F)c(-c4cccc5cccc(F)c45)ncc23)ccc1=O: 30700
Cc1cccc2cccc(-c3ncc4c(N5CCCC(CS(N)(=O)=O)C5)nc(OCC56CCCN5CCC6)nc4c3F)c12 (stereo not drawn): 238

Input line: // fetch KRas G12D (Homo sapiens, UniProt P01116, G12D) IC50 for "CCc1c(F)ccc2cc(O)cc(-c3ncc4c(NC5CN(C(N)=O)C5)nc(OC[C@@]56CCCN5C[C@H](F)C6)nc4c3F)c12"
Output line: 8

====

As shown below, each of these compounds has a reported IC50 value.
Tested on: pERK in MKN1 cells
Test: Inhibition of KRas phosphorylation of ERK (Cisbio HTRF pERK assay)
Settings: Homo sapiens, MKN-1, 3 h, read-out: Inhibition (HTRF IC50) of KRas-mediated Phosphorylation of ERK, MKN1
Write the number in nM without appending the unit.

Worked examples, 2 compounds total:
O=C1CC2(CCCN(c3nc(OC[C@@]45CCCN4C[C@H](F)C5)nc4c(F)c(-c5cc(O)cc6ccc(F)c(Br)c56)ncc34)C2)N1 (stereo partly drawn) [Example 405]: 45
Nc1cc2n(n1)CCCN(c1nc(OC[C@@]34CCCN3C[C@H](F)C4)nc3c(F)c(-c4cc(O)cc5ccc(F)c(Br)c45)ncc13)C2 [Example 408]: 351

Input line: So what does the record say about IC50 for CCc1c(F)ccc2cc(O)cc(-c3ncc4c(NCc5cc(C(=O)N(C)C)nn5C)nc(OC[C@@]56CCCN5C[C@H](F)C6)nc4c3F)c12 [Example 483] ?
Output line: 83

====

As shown below, each of these molecules has a reported log10(IC50) value.
Tested on: pERK in ASPC1 cells
Test: Inhibition of KRas phosphorylation of ERK (Cisbio HTRF pERK assay)
Details: Homo sapiens, ASPC1, read-out: Inhibition (HTRF IC50) of KRas-mediated Phosphorylation of ERK, AsPC-1
Hey, these are logged values: log10 of IC50, nM being the unit before logging.

Input line: So what does the record say about log10(IC50) for CCc1c(F)ccc2cc(O)cc(-c3ncc4c(N5CCCCC6(C5)NC(=O)NC6=O)nc(OC[C@@]56CCCN5C[C@H](F)C6)nc4c3F)c12 (stereo partly drawn) [Example 338] ?
Output line: 2.84

Input line: Now the same for C#Cc1c(F)ccc2cc(O)cc(-c3ncc4c(N5CC6CC(O)CC5C6)nc(OC[C@@]56CCCN5C[C@H](F)C6)nc4c3F)c12 (stereo partly drawn) [Example 390]
Output line: 2.29

Input line: Now the same for CCc1c(F)ccc2cc(O)cc(-c3ncc4c(N5CCOC[C@@]6(C5)CC6(F)F)nc(OC[C@@]56CCCN5C[C@H](F)C6)nc4c3F)c12 [Example 498]
Output line: 1.67

Input line: Now the same for C#Cc1c(F)ccc2cc(O)cc(-c3ncc4c(N5CCCC6(C5)NC(=O)NC6=O)nc(OC[C@@]56CCCN5C[C@H](F)C6)nc4c3F)c12 (stereo partly drawn) [Example 397]
Output line: 2.96

Input line: Now the same for CCc1c(F)ccc2cc(O)cc(-c3ncc4c(NCc5ccc6nccn6c5)nc(OC[C@@]56CCCN5C[C@H](F)C6)nc4c3F)c12 [Example 156]
Output line: 2.10
